Values from the supplement of paper PMC5998384

Assignment: determine reported melting temperature for the given sequences.
System: HeLa Kyoto;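 further: HeLa Kyoto cells synchronized by double thymidine or nocodazole block, proteins quantified by TMT10plex mass spectrometry, three independent biological replicates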
Assay: melting temperature (median over replicates), in situ; higher = more thermally stable
Conditions: cell cycle stage: G1/S
One number for each entry, in °C.

| residue sequence | numeric readout |
| --- | --- |
| MEFDLGAALEPTSQKPGVGAGHGGDPKLSPHKVQGRSEAGAGPGPKQGHHSSSDSSSSSSDSDTDVKSHAAGSKQHESIPGKAKKPKVKKKEKGKKEKGKKKEAPH [IMUP] | 59.3 |
| MSPRRTLPRPLSLCLSLCLCLCLAAALGSAQSGSCRDKKNCKVVFSQQELRKRLTPLQYHVTQEKGTESAFEGEYTHHKDPGIYKCVVCGTPLFKSETKFDSGSGWPSFHDVINSEAITFTDDFSYGMHRVETSCSQCGAHLGHIFDDGPRPTGKRYCINSAALSFTPADSSGTAEGGSGVASPAQADKAEL [MSRB3] | 55 |
| MRPLLGLLLVFAGCTFALYLLSTRLPRGRRLGSTEEAGGRSLWFPSDLAELRELSEVLREYRKEHQAYVFLLFCGAYLYKQGFAIPGSSFLNVLAGALFGPWLGLLLCCVLTSVGATCCYLLSSIFGKQLVVSYFPDKVALLQRKVEENRNSLFFFLLFLRLFPMTPNWFLNLSAPILNIPIVQFFFSVLIGLIPYNFICVQTGSILSTLTSLDALFSWDTVFKLLAIAMVALIPGTLIKKFSQKHLQLNETSTANHIHSRKDT [TMEM41A] | 55.1 |
| MALVHKLLRGTYFLRKFSKPTSALYPFLGIRFAEYSSSLQKPVASPGKASSQRKTEGDLQGDHQKEVALDITSSEEKPDVSFDKAIRDEAIYHFRLLKDEIVDHWRGPEGHPLHEVLLEQAKVVWQFRGKEDLDKWTVTSDKTIGGRSEVFLKMGKNNQSALLYGTLSSEAPQDGESTRSGYCAMISRIPRGAFERKMSYDWSQFNTLYLRVRGDGRPWMVNIKEDTDFFQRTNQMYSYFMFTRGGPYWQEVKIPFSKFFFSNRGRIRDVQHELPLDKISSIGFTLADKVDGPFFLEIDFIGVFTDPAHTEEFAYENSPELNPRLFK [NDUFAF1] | 54.6 |
| MDTGVIEGGLNVTLTIRLLMHGKEVGSIIGKKGESVKKMREESGARINISEGNCPERIITLAGPTNAIFKAFAMIIDKLEEDISSSMTNSTAASRPPVTLRLVVPASQCGSLIGKGGCKIKEIRESTGAQVQVAGDMLPNSTERAITIAGIPQSIIECVKQICVVMLETLSQSPPKGVTIPYRPKPSSSPVIFAGGQDRYSTGSDSASFPHTTPSMCLNPDLEGPPLEAYTIQGQYAIPQPDLTKLHQLAMQQSHFPMTHGNTGFSGIESSSPEVKGYWGLDASAQTTSHELTIPNDLIGCIIGRQGAKINEIRQMSGAQIKIANPVEGSTDRQVTITGSAASISLAQYLINVRLSSETGGMGSS [PCBP2] | 47.9 |

// next entry
*Q* Return reported melting temperature; argument: MALPFRKDLEKYKDLDEDELLGNLSETELKQLETVLDDLDPENALLPAGFRQKNQTSKSTTGPFDREHLLSYLEKEALEHKDREDYVPYTGEKKGKIFIPKQKPVQTFTEEKVSLDPELEEALTSASDTELCDLAAILGMHNLITNTKFCNIMGSSNGVDQEHFSNVVKGEKILPVFDEPPNPTNVEESLKRTKENDAHLVEVNLNNIKNIPIPTLKDFAKALETNTHVKCFSLAATRSNDPVATAFAEMLKVNKTLKSLNVESNFITGVGILALIDALRDNETLAELKIDNQRQQLGTAVELEMAKMLEENTNILKFGYQFTQQGPRTRAANAITKNNDLVRKRRVEGDHQ [TMOD3]
*A* 49.4
